Molecular target: human BRD4 bromodomain II (Homo sapiens, UniProt O60885)
Construct: human BRD4 bromodomain II [based on Genbank NM_058243, residues 349-460]; host or cells: E. coli
Assay: Bromodomain binding assay (AlphaScreen), BRD4 BDII
Details: AlphaScreen assay, Table C2; read-out: BRD4 BDII IC50
pIC50: −log10 of the molar value.
measurement_label: pIC50

Record excerpt, results attached:
Cn1ccn(-c2ccc(-c3cc(F)cc(-c4cnnc(N5CC[C@](C)(O)C5)c4)c3O)cc2Cl)c1=O: 9.00 to 11.00
CC(C)CN1CCN(c2cc(-c3cc(F)cc(-c4ccc(-n5ccn(C)c5=O)c(Cl)c4)c3O)ccn2)CC1: 9.00 to 11.00
Cn1ccn(-c2ccc(-c3cc(F)cc(-c4ccnc(N5CCCCC5)c4)c3O)cc2Cl)c1=O: 8.00 to 9.00
CC(C)Oc1cc(-c2cc(F)cc(-c3ccnc(N4CCNCC4)c3)c2O)cc(Cl)c1-n1ccn(C)c1=O: 7.00 to 8.00
O=c1sccn1-c1ccc(-c2cc(F)cc(-c3ccnc(N4CCNCC4)c3)c2O)cc1Cl: 8.00 to 9.00

# input compound: CN1CCN(c2ccc(-c3cccc(-c4cc(CN)cc(N5CCNCC5)c4)c3O)cc2Cl)C1=O ; wanted: its pIC50
7.00 to 8.00

GET /values?readout=pIC50&item= Cc1cc(-c2ccc(-n3ccn(C)c3=O)c(Cl)c2)c(O)c(-c2cc(N3CCN[C@H](C)C3)c3cc[nH]c3c2)c1
8.00 to 9.00

Which measured pIC50 value corresponds to CN1CCN(c2ccc(-c3cc(F)cc(-c4cnc(C#N)c(N5CCNCC5)c4)c3O)cc2Cl)C1=O ?
8.00 to 9.00

Need pIC50, item Cn1ccn(-c2ccc(-c3cc(F)cc(-c4ccnc(N5CC6CCNC6C5)c4)c3O)cc2Cl)c1=O (centres unmarked)
9.00 to 11.00

Could you share which pIC50 value was measured for Cn1ccn(-c2ccc(-c3cc(F)cc(-c4ccnc(N5C[C@@H](O)[C@H](F)C5)c4)c3O)cc2Cl)c1=O ?
8.00 to 9.00

Could you tell me which pIC50 is on file for Cn1ccn(-c2ccc(-c3cc(F)cc(-c4cc(N5CC[C@H](N)C5)c5nn[nH]c5c4)c3O)cc2Cl)c1=O ?
8.00 to 9.00

Using the record for CCOC(=O)c1cccc(-c2cccc(-c3ccc(NC(C)=O)c(F)c3)c2O)c1 , report its pIC50.
< 7.00

Reported pIC50, compound CC(=O)Nc1ccc(-c2cc(F)cc(-c3ccnc(N4CCNCC4)c3)c2O)cc1Cl : ____
8.00 to 9.00

* * *

Examples of molecules with documented pIC50 follow.
Biological target: human BRD4 bromodomain II (Homo sapiens, UniProt O60885)
Construct: human BRD4 bromodomain II [based on Genbank NM_058243, residues 349-460]; host or cells: E. coli
Assay: Bromodomain binding assay (AlphaScreen), BRD4 BDII
Settings: AlphaScreen assay, Table C2; read-out: BRD4 BDII IC50
pIC50: −log10 of the molar value.

Please review the entries below; each comes with its answer.
COc1ncc(-c2cc(F)cc(-c3ccc(-n4ccn(C)c4=O)c(Cl)c3)c2O)cc1N1CCN(C(C)(C)C)CC1: 9.00 to 11.00
CN(C)[C@@H]1CN(c2cc(-c3cc(F)cc(-c4ccc(-n5ccn(C)c5=O)c(Cl)c4)c3O)ccn2)C[C@H]1O: 9.00 to 11.00
[2H]C([2H])([2H])n1ccn(-c2ccc(-c3cc(F)cc(-c4ccnc(N5CCNC[C@@H]5C)c4)c3O)cc2Cl)c1=O: 9.00 to 11.00
CN1CCN(c2ccc(-c3cc(F)cc(-c4cc(N5CCNCC5)c5[nH]ncc5c4)c3O)cc2Cl)C1=O: 9.00 to 11.00
Cn1ccn(-c2ccc(-c3cc(F)cc(-c4ccc(C(F)(F)F)c(N5CCN(C(C)(C)C)CC5)c4)c3O)cc2Cl)c1=O: 8.00 to 9.00
CN1CCN(c2ccc(-c3cc(F)cc(-c4ccc(CO)c(N5CCNCC5)c4)c3O)cc2Cl)C1=O: 8.00 to 9.00

Now for a further molecule.
I have this molecule here, CC(=O)Nc1ccc(-c2cccc(-c3ccnc(N4CCC(CO)CC4)c3)c2O)cc1F , and I need its recorded pIC50.
8.00 to 9.00

* * *

Target: human BRD4 bromodomain II (Homo sapiens, UniProt O60885)
Construct: human BRD4 bromodomain II [based on Genbank NM_058243, residues 349-460]; host or cells: E. coli
Test: Bromodomain binding assay (AlphaScreen), BRD4 BDII
Conditions: AlphaScreen assay, Table C2; read-out: BRD4 BDII IC50
pIC50: −log10 of the molar value.
measurement_label: pIC50

These recorded examples may help you get a feel for the data.
Cn1cc(-c2cc(F)cc(-c3ccc(-n4ccn(C)c4=O)c(Cl)c3)c2O)cc(N2CCC3(CCCN3)C2)c1=O (stereo not drawn): 9.00 to 11.00
COc1cc(F)cc(-c2cccc(-c3ccc(NC(C)=O)c(F)c3)c2O)c1: < 7.00
CC(=O)Nc1ccc(-c2cccc(-c3ccc(NC(C)=O)c(N4CCNCC4)c3)c2O)cc1N1CCNCC1: < 7.00

Quick one: pIC50 of Cc1cc(-c2cccc(-c3ccc(N4CCN(C)C4=O)c(Cl)c3)c2O)cc(N2CCNCC2)n1 ?
8.00 to 9.00

Would you mind telling me what pIC50 value was observed for Cn1ccn(-c2ccc(-c3cc(F)cc(-c4ccnc(N5CCN(CCN)CC5)c4)c3O)cc2Cl)c1=O ?
9.00 to 11.00

// query pIC50 value for entry CC(=O)Nc1cc(-c2cc(F)cc(-c3ccc(-n4ccn(C)c4=O)c(Cl)c3)c2O)cc(N2CCN[C@H](C)C2)n1
9.00 to 11.00

* * *

Biological target: human BRD4 bromodomain II (Homo sapiens, UniProt O60885)
Construct: human BRD4 bromodomain II [based on Genbank NM_058243, residues 349-460]; host or cells: E. coli
Assay: Bromodomain binding assay (AlphaScreen), BRD4 BDII
Details: AlphaScreen assay, Table C2; read-out: BRD4 BDII IC50
The following molecules are listed with their measured IC50 values.

CN1CCN(c2ccc(-c3cc(F)cc(-c4ccnc(N5CCNC5=O)c4)c3O)cc2Cl)C1=O: > 100 nM
Cc1ncc(-c2cc(F)cc(-c3ccc(-n4ccn(C)c4=O)c(Cl)c3)c2O)cc1N1CC[C@@](C)(O)C1: 0.01 to 1 nM

Quick one: IC50 for O=C1NCCN1c1ccc(-c2cccc(-c3ccnc(N4CCNCC4)c3)c2O)cc1Cl ?
1 to 10 nM

Item under review: CC(=O)Nc1ccc(-c2cccc(-c3ccc(NC(C)=O)c(C(C)C)c3)c2O)cc1F . Reported IC50?
> 100 nM

Looking for the measured IC50 of CN[C@H]1CCN(c2cc(-c3cc(F)cc(-c4ccc(-n5ccn(C)c5=O)c(Cl)c4)c3O)ccn2)C1 , can you help?
0.01 to 1 nM

Please report the recorded IC50 for [2H]C([2H])([2H])n1ccn(-c2ccc(-c3cc(F)cc(-c4ccnc(N5CC6(CNC6)C5)c4)c3O)cc2Cl)c1=O .
1 to 10 nM

Sample CC(C)N1CCCN(c2cc(-c3cc(F)cc(-c4ccc(-n5ccn(C)c5=O)c(Cl)c4)c3O)ccn2)CC1 — what was its IC50?
0.01 to 1 nM

Using the record for Cn1cc(-c2cc(F)cc(-c3ccc(-n4ccn(C)c4=O)c(Cl)c3)c2O)cc(N2CCC(C)(O)C2)c1=O (stereo not drawn) , report its IC50.
1 to 10 nM

Please report the recorded IC50 for Cc1cc(-c2ccnc(N3CC[C@H](N)C3)c2)c(O)c(-c2ccc(-n3ccn(C)c3=O)c(Cl)c2)c1 .
0.01 to 1 nM

Reported IC50 for CC(=O)Nc1ccc(-c2cccc(-c3ccnc(N4CCN[C@H](C)C4)c3)c2O)cc1Cl : what is it?
1 to 10 nM

// lookup IC50 for CO[C@H]1CCN(c2cc(-c3cc(F)cc(-c4ccc(-n5ccn(C)c5=O)c(Cl)c4)c3O)ccn2)C1
0.01 to 1 nM

* * *

System: human SKM-1 acute myeloid leukemia cells
Experiment: SKM-1 antiproliferation cell-based assay (ATPlite)
Conditions: Homo sapiens, SKM-1, 96 h, SKM-1 antiproliferation assay, 4 days, Table C2
measurement_label: GI50

Fill in the recorded GI50 for this compound, with human SKM-1 acute myeloid leukemia cells as test system: Cc1cc(-c2ccc(-n3ccn(C)c3=O)c(Cl)c2)c(O)c(-c2cc(N3CC[C@H](N)C3)c3nc[nH]c3c2)c1 [Example 564]
0.3 to 30 nM

Item Cn1ccn(-c2ccc(-c3cc(F)cc(-c4cncc(N5CC[C@](C)(N)C5)c4)c3O)cc2Cl)c1=O [Example 746] with human SKM-1 acute myeloid leukemia cells - GI50?
0.3 to 30 nM

Field: GI50 (human SKM-1 acute myeloid leukemia cells). Entry: CC(C)N1C2CCC1CN(c1cc(-c3cc(F)cc(-c4ccc(-n5ccn(C)c5=O)c(Cl)c4)c3O)ccn1)C2 [Example 730]
0.3 to 30 nM

API: value(readout=GI50, system=human SKM-1 acute myeloid leukemia cells) for record O=C1CCCN1c1c(Cl)cc(-c2cc(F)cc(-c3ccnc(N4CCNCC4)c3)c2O)cc1Cl [Example 402]
300 to 3000 nM

# query: GI50 | item Cn1nnn(-c2ccc(-c3cc(F)cc(-c4ccnc(N5CCNCC5)c4)c3O)cc2Cl)c1=O [Example 520] | system: human SKM-1 acute myeloid leukemia cells
300 to 3000 nM
